Catalogue of IC50 values
Tested on: Ramos cells
Assay: BCR crosslinking-induced BLNK phosphorylation (BLNK cell assay)
Assay type: cell-based
Conditions: Homo sapiens
Method: 1. BCR Crosslinking-Induced BLNK Phosphorylation Ramos cells incubated overnight in IMDM medium containing 5% FCS were resuspended in IMDM medium without serum (3.3×10^6 cells/ml). 90 μl of cell suspension (300′000 cells) were incubated with 10 μl of SYK inhibitors (in 3% DMSO) for 20 minutes at 37° C., in 96 well plates. […] BLNK phosphorylation was detected by flow cytometry after staining of the cells with anti-BLNK-pY84-PE antibodies from BD pharmingen, for 45 minutes at RT. […]

COc1cc(Nc2nc3c(-c4cccnc4)nccn3n2)cc(OC)c1    3 to 50 µM
COc1cc(Nc2nc3c(-c4cccc(O)c4)nccn3n2)cc(OC)c1    3 to 50 µM
c1cc(-c2nccn3nc(Nc4ccc(N5CCOCC5)cc4)nc23)c2cc[nH]c2c1    3 to 50 µM
COc1cc(Nc2nc3c(-c4ccccc4-c4ccccc4)nccn3n2)cc(OC)c1    3 to 50 µM
c1cnc2cc(-c3nccn4nc(Nc5ccc(N6CCOCC6)cc5)nc34)ccc2c1    3 to 50 µM
COc1cc(Nc2nc3c(-c4cccc(NS(C)(=O)=O)c4)nccn3n2)cc(OC)c1    3 to 50 µM
CN1CCN(c2ccc(Nc3nc4c(-c5cnc6ccccc6c5)nccn4n3)cc2)CC1    3 to 50 µM
CN1CCN(c2ccc(Nc3nc4c(-c5ccc6c(cnn6C)c5)nccn4n3)cc2)CC1    3 to 50 µM
c1ccc2ncc(-c3nccn4nc(Nc5ccc(N6CCOCC6)cc5)nc34)cc2c1    3 to 50 µM
CN1CCN(c2ccc(Nc3nc4c(-c5cnn(C)c5)nccn4n3)cc2)CC1    3 to 50 µM

stdin: // output IC50; input `NCc1cccc(-c2nccn3nc(Nc4ccc(N5CCOCC5)cc4)nc23)c1` ; system Ramos cells
stdout: 3 to 50 µM

stdin: // output IC50; input Cc1nc2cc(Nc3nc4c(-c5cnn(C)c5)nccn4n3)ccc2[nH]1 [Example D1] ; system Ramos cells
stdout: 3 to 50 µM
